Here the recorded pKd is given for each entry.
measured-on: T1, cynomolgus monkey IL-17A (cynomolgus monkey, UniProt A0A2K5TTB0 24-155)
T1 construct: biotinylated in the ELISA; also called cyno IL-17; Cyno IL-17A
protocol-details: SPR (Biacore 3000), antibody captured by anti-Fc, antigen in solution;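 also: purified recombinant IL-17 antigens flowed over captured antibodies in HBS-EP buffer, global Langmuir one-to-one fit of association and dissociation phases, KD derived from koff over kon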
pKd: −log10 of the molar value.

binder	pKd
IL17-h5C5.8 (antibody, V domains shown, IgG; constant regions not specified; also called h5C5.8 (VH.1-Vk.1a)) VH: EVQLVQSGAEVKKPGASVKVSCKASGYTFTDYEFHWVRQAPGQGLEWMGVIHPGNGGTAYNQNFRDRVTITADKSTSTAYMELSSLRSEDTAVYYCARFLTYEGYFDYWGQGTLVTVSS VL: DIQMTQSPSSLSASVGDRVTITCKASQSVSIDVGWFQQKPGKSPKLLIYHASNRYTGVPSRFSGSGSGTDFTFTISSLQPEDFATYFCQQDYSSPYTFGQGTKLEIKR	9.66
IL17-h5C5.18 (antibody, V domains shown, IgG; constant regions not specified; also called h5C5.18 (VH.1b-Vk.1c)) VH: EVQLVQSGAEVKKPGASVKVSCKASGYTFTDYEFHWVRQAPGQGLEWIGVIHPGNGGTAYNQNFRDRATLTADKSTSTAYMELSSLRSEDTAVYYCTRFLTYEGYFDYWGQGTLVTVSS VL: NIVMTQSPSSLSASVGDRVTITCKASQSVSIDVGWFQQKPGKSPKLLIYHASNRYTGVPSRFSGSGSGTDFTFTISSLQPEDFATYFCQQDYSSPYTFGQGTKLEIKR	9.36
IL17-h5C5.21 (antibody, V domains shown, IgG; constant regions not specified; also called h5C5.21 (VH.1b-Vk.3c)) VH: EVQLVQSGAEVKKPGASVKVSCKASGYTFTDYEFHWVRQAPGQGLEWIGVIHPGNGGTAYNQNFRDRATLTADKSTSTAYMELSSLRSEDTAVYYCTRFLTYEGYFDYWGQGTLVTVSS VL: NIVMTQSPATLSVSPGERATLSCKASQSVSIDVGWFQQKPGQSPRLLIYHASNRYTGVPARFSGSGSGTDFTLTISSLQPEDFAVYFCQQDYSSPYTFGQGTKLEIKR	9.39
